Target: T1, APBA1_2, Q02410
T1 sequence (Q02410 742-832, limits assumed, looked up): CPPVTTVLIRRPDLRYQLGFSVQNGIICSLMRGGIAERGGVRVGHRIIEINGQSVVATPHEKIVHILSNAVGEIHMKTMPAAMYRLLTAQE
Test: holdup assay
Parameters: key: below the threshold = too weak to quantify, mostly under pKd 3.1 to 4
Conditions: plain residues with an end cap or a label only (N-terminal biotin on a linker: ado-ado)
Entries annotated with measured pKd

binder | pKd
GEDRSPPTAL [MKNK1, Q9BUB5] | 4.34
VLYPREGTEV [FOXI1, Q12951] | 4.51
TNSRHGETTV [FZD2, Q14332] | 3.71
GIKKITSTAL [RPS6KA3, P51812] | 4.1

All values here come from paper PMC9482650.
